system: Aedes aegypti; experiment: Insecticide effectiveness in the vapour phase against mosquitoes, impregnated paper unit in 20 m^3 room (Example 9); assay type: in vivo; details: 5 mg/unit; insect exposure after 4 hours; average of 3 cages
In this section, each of the compounds is paired with its reported Knock-down time KT90.

- Compound: "CC1(C)[C@H](C=C(Cl)Cl)[C@H]1C(=O)OCc1c(F)c(F)cc(F)c1F [Transfluthrin, transfluthrin]"
  Knock-down time KT90 [min]: 14
- Compound: "C=CC=C[C@@H]1[C@@H](C(=O)OCc2c(F)c(F)cc(F)c2F)C1(C)C (mixture of isomers) [Example 3]"
  Knock-down time KT90 [min]: 12
- Compound: "CC=CC1C(C(=O)OCc2c(F)c(F)c(COC)c(F)c2F)C1(C)C (stereo not shown) [Metofluthrin]"
  Knock-down time KT90 [min]: 14
- Compound: "C=CC=C[C@@H]1[C@@H](C(=O)OCc2c(F)c(F)c(COC)c(F)c2F)C1(C)C (mixture of isomers) [Example 8]"
  Knock-down time KT90 [min]: 50

###

test system: Aedes aegypti; assay: Insecticide effectiveness in the vapour phase against mosquitoes, impregnated paper unit in 20 m^3 room (Example 9); assay type: in vivo; details: 5 mg/unit; insect exposure after 4 hours; 24th hour from start of test
In this section, each of the compounds is paired with its reported % mortality 24 h.

- Compound: "CC=CC1C(C(=O)OCc2c(F)c(F)c(COC)c(F)c2F)C1(C)C (centres unmarked) [Metofluthrin]"
  % mortality 24 h: "100%"
- Compound: "C=CC=C[C@@H]1[C@@H](C(=O)OCc2c(F)c(F)cc(F)c2F)C1(C)C (mixture of isomers) [Example 3]"
  % mortality 24 h: "100%"
- Compound: "CC1(C)[C@H](C=C(Cl)Cl)[C@H]1C(=O)OCc1c(F)c(F)cc(F)c1F [Transfluthrin, transfluthrin]"
  % mortality 24 h: "100%"
- Compound: "C=CC=C[C@@H]1[C@@H](C(=O)OCc2coc(Cc3ccccc3)c2)C1(C)C (mixture of isomers) [Example 7]"
  % mortality 24 h: "65%"
- Compound: "C=CC=C[C@@H]1[C@@H](C(=O)OCc2c(F)c(F)c(COC)c(F)c2F)C1(C)C (mixture of isomers) [Example 8]"
  % mortality 24 h: "100%"

###

In this section, each of the compounds is paired with its reported Knock-down time KT50.
system: Culex quinquefasciatus; assay: Insecticide effectiveness in the vapour phase against mosquitoes, impregnated paper unit in 20 m^3 room (Example 9); assay type: in vivo; conditions: 5 mg/unit; insect exposure after 0 hours; average of 3 cages

- Compound: "C=CC=C[C@@H]1[C@@H](C(=O)OCc2c(F)c(F)cc(F)c2F)C1(C)C (mixture of isomers)"
  Knock-down time KT50, min: 28
- Compound: "CC1(C)[C@H](C=C(Cl)Cl)[C@H]1C(=O)OCc1c(F)c(F)cc(F)c1F [Transfluthrin, transfluthrin]"
  Knock-down time KT50, min: 42
- Compound: "C=CC=C[C@@H]1[C@@H](C(=O)OCc2c(F)c(F)c(COC)c(F)c2F)C1(C)C (mixture of isomers)"
  Knock-down time KT50, min: 44
- Compound: "CC=CC1C(C(=O)OCc2c(F)c(F)c(COC)c(F)c2F)C1(C)C (stereo not shown)"
  Knock-down time KT50, min: 32

###

system: Aedes aegypti; assay: Insecticide effectiveness in the vapour phase against mosquitoes, impregnated paper unit in 20 m^3 room (Example 9); format: in vivo; conditions: 5 mg/unit; insect exposure after 0 hours; 24th hour from start of test
Observed Property: % mortality 24 h (%)

- Molecule: "C=CC=C[C@@H]1[C@@H](C(=O)OCc2coc(Cc3ccccc3)c2)C1(C)C (mixture of isomers)"
  Observed Property: "% mortality 24 h"
  Unit Info: "%"
  Obs Value: 79
- Molecule: "CC=CC1C(C(=O)OCc2c(F)c(F)c(COC)c(F)c2F)C1(C)C (centres unmarked)"
  Observed Property: "% mortality 24 h"
  Unit Info: "%"
  Obs Value: 100
- Molecule: "C=CC=C[C@@H]1[C@@H](C(=O)OCc2c(F)c(F)c(COC)c(F)c2F)C1(C)C (mixture of isomers)"
  Observed Property: "% mortality 24 h"
  Unit Info: "%"
  Obs Value: 100
- Molecule: "C=CC=C[C@@H]1[C@@H](C(=O)OCc2c(F)c(F)cc(F)c2F)C1(C)C (mixture of isomers)"
  Observed Property: "% mortality 24 h"
  Unit Info: "%"
  Obs Value: 100
- Molecule: "CC1(C)[C@H](C=C(Cl)Cl)[C@H]1C(=O)OCc1c(F)c(F)cc(F)c1F [Transfluthrin, transfluthrin]"
  Observed Property: "% mortality 24 h"
  Unit Info: "%"
  Obs Value: 100

###

system: Aedes aegypti; assay: Insecticide effectiveness in the vapour phase against mosquitoes, impregnated paper unit in 20 m^3 room (Example 9); format: in vivo; details: 5 mg/unit; insect exposure after 2 hours; 24th hour from start of test
Observed Property: % mortality 24 h (%)

- Compound: "C=CC=C[C@@H]1[C@@H](C(=O)OCc2c(F)c(F)cc(F)c2F)C1(C)C (mixture of isomers) [Example 3]"
  Unit Info: "%"
  Obs Value: 100
- Compound: "C=CC=C[C@@H]1[C@@H](C(=O)OCc2coc(Cc3ccccc3)c2)C1(C)C (mixture of isomers) [Example 7]"
  Unit Info: "%"
  Obs Value: 79
- Compound: "C=CC=C[C@@H]1[C@@H](C(=O)OCc2c(F)c(F)c(COC)c(F)c2F)C1(C)C (mixture of isomers) [Example 8]"
  Unit Info: "%"
  Obs Value: 100
- Compound: "CC1(C)[C@H](C=C(Cl)Cl)[C@H]1C(=O)OCc1c(F)c(F)cc(F)c1F [Transfluthrin, transfluthrin]"
  Unit Info: "%"
  Obs Value: 100
- Compound: "CC=CC1C(C(=O)OCc2c(F)c(F)c(COC)c(F)c2F)C1(C)C (centres unmarked) [Metofluthrin]"
  Unit Info: "%"
  Obs Value: 100

###

In this section, each of the compounds is paired with its reported % Knock-down 8 h.
tested on: Culex quinquefasciatus; assay: Insecticide effectiveness in the vapour phase against mosquitoes, impregnated paper unit in 20 m^3 room (Example 9); format: in vivo; conditions: 5 mg/unit; insect exposure after 0 hours; at end of 8th hour

- Compound: "C=CC=C[C@@H]1[C@@H](C(=O)OCc2c(F)c(F)c(COC)c(F)c2F)C1(C)C (mixture of isomers) [Example 8]"
  Test System: "Culex quinquefasciatus"
  Unit Info: "%"
  % Knock-down 8 h: 100
- Compound: "C=CC=C[C@@H]1[C@@H](C(=O)OCc2coc(Cc3ccccc3)c2)C1(C)C (mixture of isomers) [Example 7]"
  Test System: "Culex quinquefasciatus"
  Unit Info: "%"
  % Knock-down 8 h: 8
- Compound: "CC1(C)[C@H](C=C(Cl)Cl)[C@H]1C(=O)OCc1c(F)c(F)cc(F)c1F [Transfluthrin, transfluthrin]"
  Test System: "Culex quinquefasciatus"
  Unit Info: "%"
  % Knock-down 8 h: 100
- Compound: "C=CC=C[C@@H]1[C@@H](C(=O)OCc2c(F)c(F)cc(F)c2F)C1(C)C (mixture of isomers) [Example 3]"
  Test System: "Culex quinquefasciatus"
  Unit Info: "%"
  % Knock-down 8 h: 100
- Compound: "CC=CC1C(C(=O)OCc2c(F)c(F)c(COC)c(F)c2F)C1(C)C (centres unmarked) [Metofluthrin]"
  Test System: "Culex quinquefasciatus"
  Unit Info: "%"
  % Knock-down 8 h: 100

###

system: Culex quinquefasciatus; test: Insecticide effectiveness in the vapour phase against mosquitoes, impregnated paper unit in 20 m^3 room (Example 9); type: in vivo; conditions: 5 mg/unit; insect exposure after 0 hours; 24th hour from start of test
In this section, each of the compounds is paired with its reported % mortality 24 h.

- Compound: "CC=CC1C(C(=O)OCc2c(F)c(F)c(COC)c(F)c2F)C1(C)C (centres unmarked)"
  % mortality 24 h [%]: 100
- Compound: "C=CC=C[C@@H]1[C@@H](C(=O)OCc2coc(Cc3ccccc3)c2)C1(C)C (mixture of isomers)"
  % mortality 24 h [%]: 70
- Compound: "CC1(C)[C@H](C=C(Cl)Cl)[C@H]1C(=O)OCc1c(F)c(F)cc(F)c1F [Transfluthrin, transfluthrin]"
  % mortality 24 h [%]: 100
- Compound: "C=CC=C[C@@H]1[C@@H](C(=O)OCc2c(F)c(F)cc(F)c2F)C1(C)C (mixture of isomers)"
  % mortality 24 h [%]: 100
- Compound: "C=CC=C[C@@H]1[C@@H](C(=O)OCc2c(F)c(F)c(COC)c(F)c2F)C1(C)C (mixture of isomers)"
  % mortality 24 h [%]: 83

###

system: Culex quinquefasciatus; experiment: Insecticide effectiveness in the vapour phase against mosquitoes, impregnated paper unit in 20 m^3 room (Example 9); format: in vivo; details: 5 mg/unit; insect exposure after 4 hours; average of 3 cages

- Compound: "CC=CC1C(C(=O)OCc2c(F)c(F)c(COC)c(F)c2F)C1(C)C (stereo not shown) [Metofluthrin]"
  Test System: "Culex quinquefasciatus"
  Knock-down time KT90: "20 min"
- Compound: "C=CC=C[C@@H]1[C@@H](C(=O)OCc2c(F)c(F)cc(F)c2F)C1(C)C (mixture of isomers) [Example 3]"
  Test System: "Culex quinquefasciatus"
  Knock-down time KT90: "14 min"
- Compound: "CC1(C)[C@H](C=C(Cl)Cl)[C@H]1C(=O)OCc1c(F)c(F)cc(F)c1F [Transfluthrin, transfluthrin]"
  Test System: "Culex quinquefasciatus"
  Knock-down time KT90: "24 min"
- Compound: "C=CC=C[C@@H]1[C@@H](C(=O)OCc2c(F)c(F)c(COC)c(F)c2F)C1(C)C (mixture of isomers) [Example 8]"
  Test System: "Culex quinquefasciatus"
  Knock-down time KT90: "66 min"
